# Test system: cpA neurons
# Method summary: extracellular single-sensillum electrophysiology: inhibition of CO2-responsive (cpA) neuronal activity
# Recorded conditions: Table 13, single component alone; Inh = inhibitor
Property name: Class (inhibitor class of the individual component)

# Compound, Target desc, Experimental result
data = [
    ("COc1ccc(C=O)cc1OC [OLI0095, Veratraldehyde]", "cpA neurons", "Mild"),
    ("CCCCCCC/C=C/C=O [OLI0077, trans-2-decenal]", "cpA neurons", "Mod"),
    ("CCCCCCCCO [OLI0080, 1-octanol]", "cpA neurons", "Mild"),
    ("CC(=O)CC/C=C(\\C)CCC=C(C)C [OLI0089, Geranylacetone]", "cpA neurons", "Mild"),
    ("CCCC(=O)OC(C)(C)Cc1ccccc1 [OLI0082, alpha,alpha-dimethyl phenethyl butyrate]", "cpA neurons", "Mild"),
    ("CCCCCC(=O)CC [OLI0075, octanone-3]", "cpA neurons", "Mod"),
    ("CC/C=C\\CCOC(C)=O [OLI0073, cis-3-hexenyl acetate]", "cpA neurons", "Mod"),
    ("CCCCC(=O)OCc1ccco1 [OLI0074, furfurylpentanoate]", "cpA neurons", "Mod"),
    ("CC/C=C\\CCCCO [OLI0084, cis-5-octen-1-ol]", "cpA neurons", "Mild"),
    ("CCc1nccnc1OC [OLI0071, 2-ethyl-3-methoxypyrazine]", "cpA neurons", "Mod"),
    ("CC/C=C\\CCOC(=O)CCC [OLI0083, cis-3-hexenyl butyrate]", "cpA neurons", "Mild"),
    ("CCC(=O)OCCc1ccccc1 [OLI0076, Phenethyl propionate]", "cpA neurons", "Mod"),
    ("C=CCc1ccc(O)c(OC)c1 [OLI0102, Eugenol]", "cpA neurons", "Mild"),
    ("CCC/C=C\\CCOC(C)=O [OLI0078, (Z)-hept-3-enylacetate]", "cpA neurons", "Mild"),
]

###

Readings of pest or weed control at 0.25 % for the listed molecules
# Test system: larvae
# Method summary: larvicidal activity assay
# Type: in vivo
# Recorded conditions: 0.25% compound, 24 hour exposure, dead larvae / total larvae; read-out: % Lethality with 0.25% compound conc.
Property name: pest or weed control at 0.25 % (%)

# Molecule, Units text, Experimental result
rows = [
    ("CCOC(=O)C(C)O (stereo not shown) [OLI0010, ethyllactate]", "%", 0),
    ("CCOC(=O)C=Cc1ccccc1 [OLI0110, ethyl cinnamate]", "%", 100),
    ("CCOC(=O)CC(C)O (stereo not shown) [OLI0042, ethyl 3-hydroxybutyrate]", "%", 0),
    ("CCCCC(=O)OCc1ccco1 [OLI0074, furfurylpentanoate]", "%", 100),
    ("CCC(=O)OCCc1ccccc1 [OLI0076, Phenethyl propionate]", "%", 100),
    ("C=CCc1ccc(O)c(OC)c1", "%", 100),
    ("CCCC(O)CC(=O)OCC (stereo not shown) [OLI0021, ethyl 3-hydroxyhexanoate]", "%", 0),
    ("C=CCOC(=O)C=Cc1ccccc1 [OLI0104, allyl cinnamate]", "%", 100),
    ("COC(=O)CCC(C)=O [OLI0027, methyl levulinate]", "%", 50),
    ("COc1cnccn1", "%", 100),
]

Reference source for all entries: patent US20150216182A1
